# System: 786-O (renal cell carcinoma) cells
# Test Details: Cell viability (CellTiter Glo) assay, inhibition of 786-O cell proliferation
# Assay type: cell-based
# Settings: Homo sapiens, 786-0; 786-O cells, 72 hours, CellTiter Glo; read-out: IC50, inhibition of 786-O cell proliferation
pIC50: −log10 of the molar value.
Recorded Endpoint: pIC50

> print(dat)
                                   compound  recorded.endpoint  readout.value
1  CC(C)N(CC(F)(F)F)C(=N)OCc1nc(Cl)c2c(n1)N(c1ccc(OC3CCCCC3)nc1)C(=O)C2(C)C              pIC50   5.30 to 6.30
2  CNc1nc(COC(=N)N2CCC[C@@H]2C(F)(F)F)nc2c(-c3ccc(N4C[C@@H](C)O[C@@H](C)C4)nc3)coc12              pIC50   6.30 to 7.00
3  CC1(NC(=N)OCc2nc(N)nc(Nc3ccc(Oc4ccccc4)cc3)n2)CCCCC1              pIC50   6.30 to 7.00
4  CCCCC1Cc2c([nH]c3ccccc23)C(c2ccc(NC34CC5CC(CC(C5)C3)C4)cc2)N1C(=O)CO/C(=N\C(C)C)NC(C)C (stereo not shown)              pIC50         < 5.30
5  CC1(C)C(=O)N(c2ccc(N3CCC4(CC3)CC4)nc2)c2nc(COC(=N)N3CCC[C@@H]3C(F)(F)F)nc(N)c21              pIC50         > 7.00
6  COc1ccc(CNc2nc(COC(=N)N3CCC(F)(F)CC3)nc3c2C(C)(C)CN3c2ccc(Oc3ccccc3)cc2)cc1              pIC50   6.30 to 7.00

# input for lookup
Reading of pIC50 for COc1cc(F)ccc1N1CC(C)(C)c2c(NCC(F)(F)F)nc(COC(=N)N3CCC[C@@H]3C(F)(F)F)nc21 with 786-O (renal cell carcinoma) cells: > 7.00
